# method_summary: Aqueous solubility (Multiscreen solubility filter plates)
# Format: physicochemical
# measurement_context: Universal buffer with 1% DMSO, pH 7.4, 25 °C, pH 7.4, 24 h agitation
recorded_metric: solubility at 24 h (µM)

1) Cc1nc2c(n1CCCCCCCCC[P+](c1ccccc1)(c1ccccc1)c1ccccc1)C(=O)c1ccccc1C2=O.[I-] ... 106
2) Cc1nc2c(n1CCCCCCCCCCC[P+](c1ccccc1)(c1ccccc1)c1ccccc1)C(=O)c1ccccc1C2=O.[I-] ... 27

###

# Test system: Vero E6 cells
# method_summary: Cytotoxicity on Vero E6 cells
# Assay type: cell-based, African green monkey
# measurement_context: Chlorocebus sabaeus, Vero C1008; 48 h; reduces growth of Vero E6 by 50% vs untreated controls
Below: a set of entries, each annotated with reported log10(IC50).
recorded_metric: log10(IC50) (log10 of the value in µM)

1. O=C1c2ccccc2C(=O)c2c1nc(C(F)(F)F)n2CCCCCCCCCCC[P+](c1ccccc1)(c1ccccc1)c1ccccc1 ... 0.75
2. Cc1nc2c(n1CCCCCCC[P+](c1ccccc1)(c1ccccc1)c1ccccc1)C(=O)c1ccccc1C2=O.[I-] ... 1.68
3. Cc1cc(=O)n(CCCCCCC[P+](c2ccccc2)(c2ccccc2)c2ccccc2)c2c1C(=O)c1ccccc1C2=O.[I-] ... 0.77
4. Cc1cc(=O)n(CCCCCCCCCCC[P+](c2ccccc2)(c2ccccc2)c2ccccc2)c2c1C(=O)c1ccccc1C2=O ... 0.32
5. Cc1nc2c(n1CCCCCCCCCCC[P+](c1ccccc1)(c1ccccc1)c1ccccc1)C(=O)c1cccnc1C2=O ... 0.73
6. Cc1nc2c(n1CCCCCCC[P+](C1CCCCC1)(C1CCCCC1)C1CCCCC1)C(=O)c1ccccc1C2=O.[I-] ... 1.39
7. Cc1nc2c(n1CCCCCCCCCCC[P+](c1ccccc1)(c1ccccc1)c1ccccc1)C(=O)c1ccccc1C2=O.[I-] ... 0.75

Provenance of the data: paper PMC9749938
